Where these numbers come from: BigSolDB 2.1

# condition info: in ethyl acetate, 293.15 K
measurement label: solubility (mole fraction)
Answers are plain numbers.

Problem: Recorded solubility (mole fraction) for Cc1cccc(C(=O)O)c1N , please?
Solution: 0.0469

###

# condition info: in 2-butanone, 293.15 K
measurement label: solubility (mole fraction)
Give bare numbers.

Problem: Recorded solubility (mole fraction) for Cc1cccc(C(=O)O)c1N , please?
Solution: 0.0872

###

# condition info: in ethyl acetate, 283.15 K
measurement label: solubility (mole fraction)
Give bare numbers.

Problem: Recorded solubility (mole fraction) for Cc1cccc(C(=O)O)c1N , please?
Solution: 0.0345

###

# condition info: in 2-butanone, 298.15 K
measurement label: solubility (mole fraction)
One number for each entry.

Problem: Recorded solubility (mole fraction) for Cc1cccc(C(=O)O)c1N , please?
Solution: 0.0953
